Sourced from patent US7507860B2

- Target Or Test System: human androgen receptor (hAR) (Homo sapiens)
- Construct: made in house; host or cells: baculovirus/Sf9 insect cells (crude extract)
- Sequence (P10275 whole entry): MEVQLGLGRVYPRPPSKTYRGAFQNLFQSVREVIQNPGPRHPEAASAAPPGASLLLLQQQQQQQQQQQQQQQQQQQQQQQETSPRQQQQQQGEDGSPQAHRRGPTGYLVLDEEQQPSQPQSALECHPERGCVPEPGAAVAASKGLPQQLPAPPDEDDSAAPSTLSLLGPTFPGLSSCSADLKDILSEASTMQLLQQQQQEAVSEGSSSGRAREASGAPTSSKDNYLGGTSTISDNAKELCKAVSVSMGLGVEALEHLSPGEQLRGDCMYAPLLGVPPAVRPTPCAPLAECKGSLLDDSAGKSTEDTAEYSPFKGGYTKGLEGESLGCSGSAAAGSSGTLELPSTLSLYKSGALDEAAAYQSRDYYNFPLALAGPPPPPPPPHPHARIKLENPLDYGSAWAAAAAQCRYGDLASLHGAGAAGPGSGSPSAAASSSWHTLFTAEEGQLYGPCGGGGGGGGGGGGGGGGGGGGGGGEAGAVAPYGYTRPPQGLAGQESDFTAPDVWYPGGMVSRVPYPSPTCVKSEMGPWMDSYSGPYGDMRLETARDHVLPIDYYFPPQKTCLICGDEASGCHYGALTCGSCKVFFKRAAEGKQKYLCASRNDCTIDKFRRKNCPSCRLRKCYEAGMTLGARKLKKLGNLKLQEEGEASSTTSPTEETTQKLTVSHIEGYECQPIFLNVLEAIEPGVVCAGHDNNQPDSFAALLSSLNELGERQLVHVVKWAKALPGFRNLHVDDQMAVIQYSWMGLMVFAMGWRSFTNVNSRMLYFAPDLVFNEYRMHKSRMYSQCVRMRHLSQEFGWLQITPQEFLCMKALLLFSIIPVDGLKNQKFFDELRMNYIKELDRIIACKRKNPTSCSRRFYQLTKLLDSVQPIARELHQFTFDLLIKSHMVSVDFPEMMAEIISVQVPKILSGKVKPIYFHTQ
- Experiment: Competitive binding analysis on baculovirus/Sf9 generated hAR extracts with 3H-DHT tracer
- Study Conditions: hAR extract, 1 nM 3H-DHT, one hour at 4° C; mean of multiple tests; read-out: AR Binding IC50
Observable: pIC50
// pIC50 here means minus log10 of the molar concentration (mol/L)

Query string: For the molecule CCCC(Oc1ccc(C#N)c(C(F)(F)F)c1)C(=O)NCCc1c[nH]c2ccccc12 (stereo not shown) [Example 65] , give its measured pIC50 value.
Result string: 7.48

Query string: For the molecule CC(C)CC(Oc1ccc(C#N)c(C(F)(F)F)c1)C(=O)NCc1ccc2nsnc2c1 (stereo not shown) [Example 26] , give its measured pIC50 value.
Result string: 7.17

Query string: For the molecule CC(C)CC(Oc1ccc(C#N)c(C(F)(F)F)c1)C(=O)NCc1ccc(C(C)C)cc1 (stereo not shown) [Example 70] , give its measured pIC50 value.
Result string: 6.60

Query string: For the molecule CCCC(Oc1ccc(C#N)c(C(F)(F)F)c1)C(=O)NCc1ccccc1OC (stereo not shown) [Example 41] , give its measured pIC50 value.
Result string: 6.77
